Cited source: the supplement of paper PMC10126150

tested on: ATP; assay: switch fluorescence ratio, 500 uM ATP over buffer (Cy3 cluster intensity, sum of 5 cycles each) (fold (ratio)); higher = stronger signal-on switching upon ATP binding; sequences stand for … in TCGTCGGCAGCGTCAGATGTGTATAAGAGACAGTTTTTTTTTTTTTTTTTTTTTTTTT…TC; details: aptamer strand: ATP DNA aptamer (quencher-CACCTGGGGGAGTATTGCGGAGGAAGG + anchor), 100 nM annealed; ATP concentration: 500 uM;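 further: ATP exposure 15 min at 22 °C before imaging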
experimentalEndpoint: switch fluorescence ratio
// no unit string in output, number only

The following sequences have reported results that may help.
[[record]]
entrysequence = "ATGAGGTAGG"
targetundertest = "ATP"
result = 1.03

[[record]]
entrysequence = "ATACGAGATT"
targetundertest = "ATP"
result = 1.01

[[record]]
entrysequence = "AGGGACGGGG"
targetundertest = "ATP"
result = 0.991

[[record]]
entrysequence = "ATTACAACGA"
targetundertest = "ATP"
result = 1.02


Give a short answer stating reported switch fluorescence ratio for GAGACAGCGC .
1.02

Give a short answer stating reported switch fluorescence ratio for CGTAGTTTAG .
1.05

Give a short answer stating reported switch fluorescence ratio for ATGTAGCGAC .
1.44

Give a short answer stating reported switch fluorescence ratio for GAAAGCATAT .
1.01

Give a short answer stating reported switch fluorescence ratio for CAGAAAGAGC .
0.969

Give a short answer stating reported switch fluorescence ratio for AGATGGCCGG .
1

###

Measured switch fluorescence ratio accompanies every entry in the list below.
system: ATP; test: switch fluorescence ratio, 500 uM ATP over buffer (Cy3 cluster intensity, sum of 5 cycles each) (fold (ratio)); higher = stronger signal-on switching upon ATP binding; sequences stand for … in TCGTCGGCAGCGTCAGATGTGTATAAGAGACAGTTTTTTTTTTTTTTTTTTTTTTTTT…TC; conditions: aptamer strand: ATP DNA aptamer (quencher-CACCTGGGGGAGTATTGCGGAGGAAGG + anchor), 100 nM annealed; ATP concentration: 500 uM;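 further: ATP exposure 15 min at 22 °C before imaging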

[[record]]
entrysequence = "AGGCGTGCTT"
experimentalendpoint = "switch fluorescence ratio"
result = 0.987

[[record]]
entrysequence = "AGTCCTGGCC"
experimentalendpoint = "switch fluorescence ratio"
result = 0.999

[[record]]
entrysequence = "CTAGGCTAGG"
experimentalendpoint = "switch fluorescence ratio"
result = 0.989

[[record]]
entrysequence = "GCAGGTTGGT"
experimentalendpoint = "switch fluorescence ratio"
result = 1.04

[[record]]
entrysequence = "TATATGTGAT"
experimentalendpoint = "switch fluorescence ratio"
result = 0.987


Provide the reported switch fluorescence ratio (system: ATP) for ACGATCATTT;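 further: ATP exposure 15 min at 22 °C before imaging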
1.05

Provide the reported switch fluorescence ratio (system: ATP) for CAGTTTGCTG;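 further: ATP exposure 15 min at 22 °C before imaging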
0.979

Provide the reported switch fluorescence ratio (system: ATP) for GGGGGATGGG;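 further: ATP exposure 15 min at 22 °C before imaging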
0.998

Provide the reported switch fluorescence ratio (system: ATP) for TGGGGTAAGA;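 further: ATP exposure 15 min at 22 °C before imaging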
1.02

###

test system: ATP; assay: switch fluorescence ratio, 500 uM ATP over buffer (Cy3 cluster intensity, sum of 5 cycles each) (fold (ratio)); higher = stronger signal-on switching upon ATP binding; sequences stand for … in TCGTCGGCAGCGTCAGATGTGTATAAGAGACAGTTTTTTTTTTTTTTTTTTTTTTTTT…TC; conditions: aptamer strand: ATP DNA aptamer (quencher-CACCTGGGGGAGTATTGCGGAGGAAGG + anchor), 100 nM annealed; ATP concentration: 500 uM;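 further: ATP exposure 15 min at 22 °C before imaging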
Measured switch fluorescence ratio accompanies every entry in the list below.

The following sequences have reported results that may help.
[[record]]
entrysequence = "GGGTATTTGT"
experimentalendpoint = "switch fluorescence ratio"
result = 1

[[record]]
entrysequence = "GGTGTGTAGA"
experimentalendpoint = "switch fluorescence ratio"
result = 1.02

[[record]]
entrysequence = "GATCGCGTAT"
experimentalendpoint = "switch fluorescence ratio"
result = 1.02

[[record]]
entrysequence = "CCGTGGTACC"
experimentalendpoint = "switch fluorescence ratio"
result = 1.84

[[record]]
entrysequence = "GAATTTATGG"
experimentalendpoint = "switch fluorescence ratio"
result = 0.985

[[record]]
entrysequence = "GTTTTATTTG"
experimentalendpoint = "switch fluorescence ratio"
result = 1.01


Give a short answer stating reported switch fluorescence ratio for CATGCCTTGT .
1.01

###

Measured switch fluorescence ratio accompanies every entry in the list below.
system: ATP; assay: switch fluorescence ratio, 500 uM ATP over buffer (Cy3 cluster intensity, sum of 5 cycles each) (fold (ratio)); higher = stronger signal-on switching upon ATP binding; sequences stand for … in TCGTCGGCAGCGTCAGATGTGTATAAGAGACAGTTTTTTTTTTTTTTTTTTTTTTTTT…TC; settings: aptamer strand: ATP DNA aptamer (quencher-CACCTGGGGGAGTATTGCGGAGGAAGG + anchor), 100 nM annealed; ATP concentration: 500 uM;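 further: ATP exposure 15 min at 22 °C before imaging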
// no unit string in output, number only

The following sequences have reported results that may help.
[[record]]
entrysequence = "TAATTTGTTC"
targetundertest = "ATP"
result = 1

[[record]]
entrysequence = "GACGTTTAAG"
targetundertest = "ATP"
result = 0.977

[[record]]
entrysequence = "AATTATGGGA"
targetundertest = "ATP"
result = 0.986

[[record]]
entrysequence = "GTAATTGTTA"
targetundertest = "ATP"
result = 1

[[record]]
entrysequence = "ATACTGGGGT"
targetundertest = "ATP"
result = 1.04

[[record]]
entrysequence = "GCTTGCACTA"
targetundertest = "ATP"
result = 0.998

[[record]]
entrysequence = "AGTAACCGGG"
targetundertest = "ATP"
result = 1.02

[[record]]
entrysequence = "CGATGGTTGA"
targetundertest = "ATP"
result = 1


Give a short answer stating reported switch fluorescence ratio for GGGGGGCCAG .
1.01

###

Measured switch fluorescence ratio accompanies every entry in the list below.
system: ATP; test: switch fluorescence ratio, 500 uM ATP over buffer (Cy3 cluster intensity, sum of 5 cycles each) (fold (ratio)); higher = stronger signal-on switching upon ATP binding; sequences stand for … in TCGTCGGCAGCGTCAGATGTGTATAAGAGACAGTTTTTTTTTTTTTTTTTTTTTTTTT…TC; conditions: aptamer strand: ATP DNA aptamer (quencher-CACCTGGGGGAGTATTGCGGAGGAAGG + anchor), 100 nM annealed; ATP concentration: 500 uM;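 further: ATP exposure 15 min at 22 °C before imaging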
// no unit string in output, number only

Give a short answer stating reported switch fluorescence ratio for GTTGTTTCAG .
0.969

###

test system: ATP; assay: switch fluorescence ratio, 500 uM ATP over buffer (Cy3 cluster intensity, sum of 5 cycles each) (fold (ratio)); higher = stronger signal-on switching upon ATP binding; sequences stand for … in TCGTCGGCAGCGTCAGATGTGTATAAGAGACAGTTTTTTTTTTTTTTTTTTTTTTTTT…TC; settings: aptamer strand: ATP DNA aptamer (quencher-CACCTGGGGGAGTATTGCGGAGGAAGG + anchor), 100 nM annealed; ATP concentration: 500 uM;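 further: ATP exposure 15 min at 22 °C before imaging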
Hi, to clarify the labels: yes (1) covers switch fluorescence ratio from 1 upward, no (0) covers anything below 1.

State whether the measured switch fluorescence ratio reaches 1, counting equality as reaching it, for ACGTATAGAA
yes (1)

State whether the measured switch fluorescence ratio reaches 1, counting equality as reaching it, for GCGTGCAATG
yes (1)

###

tested on: ATP; test: switch fluorescence ratio, 500 uM ATP over buffer (Cy3 cluster intensity, sum of 5 cycles each) (fold (ratio)); higher = stronger signal-on switching upon ATP binding; sequences stand for … in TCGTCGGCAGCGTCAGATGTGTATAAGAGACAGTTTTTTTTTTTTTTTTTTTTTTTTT…TC; settings: aptamer strand: ATP DNA aptamer (quencher-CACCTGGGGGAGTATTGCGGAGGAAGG + anchor), 100 nM annealed; ATP concentration: 500 uM;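 further: ATP exposure 15 min at 22 °C before imaging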
experimentalEndpoint: switch fluorescence ratio
// no unit string in output, number only

[[record]]
entrysequence = "TGAGGAAGGC"
experimentalendpoint = "switch fluorescence ratio"
result = 0.992

[[record]]
entrysequence = "TGAGACTGGG"
experimentalendpoint = "switch fluorescence ratio"
result = 0.993

[[record]]
entrysequence = "CGCCTTTGTG"
experimentalendpoint = "switch fluorescence ratio"
result = 1

[[record]]
entrysequence = "AGGGGGTTAG"
experimentalendpoint = "switch fluorescence ratio"
result = 0.989

[[record]]
entrysequence = "CCTGAGAACA"
experimentalendpoint = "switch fluorescence ratio"
result = 1.02

[[record]]
entrysequence = "CAGGATTTTT"
experimentalendpoint = "switch fluorescence ratio"
result = 0.993

[[record]]
entrysequence = "GAGCCAGATT"
experimentalendpoint = "switch fluorescence ratio"
result = 1.01

[[record]]
entrysequence = "ATGGGCCCAT"
experimentalendpoint = "switch fluorescence ratio"
result = 1.01

[[record]]
entrysequence = "AGGTTGTAAT"
experimentalendpoint = "switch fluorescence ratio"
result = 1

[[record]]
entrysequence = "TTGTTCGAGG"
experimentalendpoint = "switch fluorescence ratio"
result = 0.988


Give a short answer stating reported switch fluorescence ratio for GAGGCTGGGC .
0.973

###

test system: ATP; experiment: switch fluorescence ratio, 500 uM ATP over buffer (Cy3 cluster intensity, sum of 5 cycles each) (fold (ratio)); higher = stronger signal-on switching upon ATP binding; sequences stand for … in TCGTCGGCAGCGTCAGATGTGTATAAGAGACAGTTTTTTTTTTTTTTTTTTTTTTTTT…TC; details: aptamer strand: ATP DNA aptamer (quencher-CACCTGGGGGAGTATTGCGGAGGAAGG + anchor), 100 nM annealed; ATP concentration: 500 uM;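 further: ATP exposure 15 min at 22 °C before imaging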
Measured switch fluorescence ratio accompanies every entry in the list below.
// no unit string in output, number only

The following sequences have reported results that may help.
[[record]]
entrysequence = "TAGGCTGAGG"
result = 1

[[record]]
entrysequence = "TATGATGTAA"
result = 1.02


Give a short answer stating reported switch fluorescence ratio for ATGTTTTCTC .
0.993

Give a short answer stating reported switch fluorescence ratio for AGTGGCACTG .
0.996
